- Test system: Escherichia coli
- assay: microbe, parasite or virus in culture
- condition.description: ATCC 25922
- Description: Antibacterial activity against wild-type Escherichia coli ATCC 25922 by broth microdilution method
property.label: MIC (mg/L)
Give your result in mg/L as a bare value.

Input line: Quick one: give measured MIC for COc1ccc(-c2ccc3c(c2)oc(=O)n3CC[C@](C)(C(=O)NO)S(C)(=O)=O)c(F)c1
Output line: 0.5

Input line: Quick one: give measured MIC for COc1ccc(-c2cn3c(n2)CN(CC[C@](C)(C(=O)NO)S(C)(=O)=O)C3=O)c(F)c1
Output line: 4

Input line: Quick one: give measured MIC for C[C@@](CCN1Cc2cc(C#Cc3ccc([C@H](O)CO)cc3)sc2C1=O)(C(=O)NO)S(C)(=O)=O
Output line: 0.5

Input line: Quick one: give measured MIC for C[C@@](CCN1Cc2cc(C#CC#CC3(O)COC3)sc2C1=O)(C(=O)NO)S(C)(=O)=O
Output line: 2

Input line: Quick one: give measured MIC for C[C@@](CCN1Cc2cc(C#Cc3ccc(COC(=O)N4CCC(O)CC4)cc3)cn2C1=O)(C(=O)NO)S(C)(=O)=O
Output line: 0.25

Input line: Quick one: give measured MIC for C[C@@](CCN1Cc2cc(C#CC#CC3(CO)CC3)sc2C1=O)(C(=O)NO)S(C)(=O)=O
Output line: 1

###

- assay: physchem
- condition.description: DMSO, pH 7
- Description: Solubility of the compound in DMSO at pH 7 incubated for 24 hrs by LC-UV method
property.label: log10(solubility at 24 h) (log10 of the value in µg/mL)
Would you kindly interpret these values as log10 of solubility at 24 h expressed in µg/mL?

>  <compound>
C[C@@](CCN1Cc2cc(C#Cc3ccc(C4(CO)CC4)cc3)cn2C1=O)(C(=O)NO)S(C)(=O)=O

>  <property.label>
log10(solubility at 24 h)

>  <meas.value>
0.85

$$$$
>  <compound>
C[C@@](CCN1Cc2cc(C#CC#CC3(N)CC3)sc2C1=O)(C(=O)NO)S(C)(=O)=O.Cl

>  <property.label>
log10(solubility at 24 h)

>  <meas.value>
2.32

$$$$
>  <compound>
COc1ccc(-c2cc3n(c2)C(=O)N(CC[C@](C)(C(=O)NO)S(C)(=O)=O)C3)c(F)c1

>  <property.label>
log10(solubility at 24 h)

>  <meas.value>
1.57

$$$$
>  <compound>
COc1ccc(-c2ccc3c(c2)CN(CC[C@](C)(C(=O)NO)S(C)(=O)=O)C3=O)c(F)c1

>  <property.label>
log10(solubility at 24 h)

>  <meas.value>
0.70

$$$$
>  <compound>
CC(C)(O)C#CC#Cc1ccc2c(c1)CN(CC[C@](C)(C(=O)NO)S(C)(=O)=O)C2=O

>  <property.label>
log10(solubility at 24 h)

>  <meas.value>
1.99

$$$$

Now take the following compound into account.
Input line: Quick one: give measured log10(solubility at 24 h) for C[C@@](CCN1Cc2cc(C#Cc3ccc([C@H]4C[C@@H]4CO)cc3)cn2C1=O)(C(=O)NO)S(C)(=O)=O
Output line: 1.38

###

- assay: Apparent clearance in NMRI/ICR CD-1 mouse at 150 mg/kg, sc by LC-MS/MS analysis
- Format: ADME, organism-based
- condition.description: in vivo
property.label: CL/F (mL/min/kg)
Give your result in mL/min/kg as a bare value.

Input line: Quick one: give measured CL/F for C[C@@](CCN1Cc2cc(C#CC#CC3(N)CC3)cn2C1=O)(C(=O)NO)S(C)(=O)=O.Cl
Output line: 55.9
